Entry source: ChEMBL document CHEMBL5465560

Biological target: Interleukin-1 receptor-associated kinase 4 (Homo sapiens, UniProt Q9NWZ3)
Sequence (Q9NWZ3 whole entry): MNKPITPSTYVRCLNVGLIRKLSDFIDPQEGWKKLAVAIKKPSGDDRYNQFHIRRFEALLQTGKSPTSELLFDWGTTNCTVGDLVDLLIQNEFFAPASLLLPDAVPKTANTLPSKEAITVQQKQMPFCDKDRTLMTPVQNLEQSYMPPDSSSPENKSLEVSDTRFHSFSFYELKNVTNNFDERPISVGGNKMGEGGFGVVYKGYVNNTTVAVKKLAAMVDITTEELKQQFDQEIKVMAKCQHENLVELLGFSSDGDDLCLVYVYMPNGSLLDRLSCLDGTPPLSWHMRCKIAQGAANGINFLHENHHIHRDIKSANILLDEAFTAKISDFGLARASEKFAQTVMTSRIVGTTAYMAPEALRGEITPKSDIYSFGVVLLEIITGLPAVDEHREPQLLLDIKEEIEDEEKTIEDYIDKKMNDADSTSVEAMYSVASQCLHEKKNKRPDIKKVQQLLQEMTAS
Assay: Selectivity interaction (Kinase panel (Enzymatic assay, microfluidic mobility shift readout, Caliper lifesciences, conc. ATP = Km for each kinase)) EUB0000678a IRAK4
pIC50: −log10 of the molar value.

MOLECULE_SMILES | pIC50
CCN1CCN(c2ccc(Nc3cc(N(C)C(=O)Nc4c(Cl)c(OC)cc(OC)c4Cl)ncn3)cc2)CC1 | < 5.00

----------
Target: Mitogen-activated protein kinase kinase kinase 1 (Homo sapiens)
Experiment: Selectivity interaction (Kinase panel (Invitrogen, enzymatic assay)) EUB0000623aCl MAP3K1

MOLECULE_SMILES | IC50
CC(C)(C)c1ccc(C(=O)Nc2cn3cc(-n4ccnc4)ccc3n2)cc1 | > 10 µM

----------
Target: Endothelin-1 receptor (Homo sapiens, UniProt P25101)
Sequence (P25101 whole entry): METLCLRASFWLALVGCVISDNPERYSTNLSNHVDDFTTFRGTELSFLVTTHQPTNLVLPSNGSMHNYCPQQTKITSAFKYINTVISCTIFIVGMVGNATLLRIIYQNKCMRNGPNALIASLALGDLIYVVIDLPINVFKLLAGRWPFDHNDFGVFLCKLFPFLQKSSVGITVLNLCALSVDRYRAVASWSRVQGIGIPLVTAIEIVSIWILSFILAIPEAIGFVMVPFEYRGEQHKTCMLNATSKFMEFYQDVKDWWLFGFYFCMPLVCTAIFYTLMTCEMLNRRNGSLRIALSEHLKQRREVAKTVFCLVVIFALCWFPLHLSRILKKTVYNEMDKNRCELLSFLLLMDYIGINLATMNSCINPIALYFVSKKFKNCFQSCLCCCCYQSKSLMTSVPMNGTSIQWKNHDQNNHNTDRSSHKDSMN
Assay: Selectivity interaction (Endothelin A receptor binding assay, human recombinant ) EUB0000877a EDNRA
pIC50: −log10 of the molar value.

COMPOUND | pIC50
CCC(=O)N1CC[C@H](Nc2ncnc3c2CN(c2cnc(OC)c(C(F)(F)F)c2)CC3)C1 [LENIOLISIB] | < 4.52

----------
Biological target: Mitotic checkpoint serine/threonine-protein kinase BUB1 (Homo sapiens, UniProt O43683)
Sequence (O43683 whole entry): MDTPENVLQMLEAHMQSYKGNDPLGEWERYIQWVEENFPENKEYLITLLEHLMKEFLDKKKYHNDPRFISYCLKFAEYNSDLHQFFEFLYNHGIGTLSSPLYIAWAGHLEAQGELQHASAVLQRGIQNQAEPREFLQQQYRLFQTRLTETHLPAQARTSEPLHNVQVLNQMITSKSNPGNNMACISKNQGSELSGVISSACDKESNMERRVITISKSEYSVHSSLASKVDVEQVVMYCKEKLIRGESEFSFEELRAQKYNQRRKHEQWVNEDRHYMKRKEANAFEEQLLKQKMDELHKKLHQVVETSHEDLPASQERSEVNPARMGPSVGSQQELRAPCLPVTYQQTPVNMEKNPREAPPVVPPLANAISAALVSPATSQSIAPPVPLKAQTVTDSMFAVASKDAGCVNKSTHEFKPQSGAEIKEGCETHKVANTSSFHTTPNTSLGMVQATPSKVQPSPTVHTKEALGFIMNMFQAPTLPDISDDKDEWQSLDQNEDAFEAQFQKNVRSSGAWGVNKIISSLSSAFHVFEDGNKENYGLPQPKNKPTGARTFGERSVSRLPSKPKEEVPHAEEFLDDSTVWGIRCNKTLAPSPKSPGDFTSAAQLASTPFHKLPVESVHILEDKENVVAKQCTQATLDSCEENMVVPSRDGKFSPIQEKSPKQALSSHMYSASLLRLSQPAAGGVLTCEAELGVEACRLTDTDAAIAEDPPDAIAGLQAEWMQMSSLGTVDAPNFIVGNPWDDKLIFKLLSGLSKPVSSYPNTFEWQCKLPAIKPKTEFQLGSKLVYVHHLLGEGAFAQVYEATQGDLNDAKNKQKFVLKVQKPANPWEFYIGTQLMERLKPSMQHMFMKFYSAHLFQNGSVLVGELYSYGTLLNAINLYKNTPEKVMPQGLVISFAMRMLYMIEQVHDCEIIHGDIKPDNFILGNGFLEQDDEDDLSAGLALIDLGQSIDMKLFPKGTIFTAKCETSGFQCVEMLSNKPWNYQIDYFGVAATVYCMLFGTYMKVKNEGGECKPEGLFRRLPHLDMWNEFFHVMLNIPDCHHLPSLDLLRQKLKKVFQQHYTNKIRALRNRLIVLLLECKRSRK
Assay: Selectivity interaction (TR-FRET kinase assay ) EUB0001548a BUB1
pIC50: −log10 of the molar value.

MOLECULE_SMILES | TARGET_DESC | pIC50
COc1cnccc1Nc1nc(-c2nn(Cc3c(F)cc(OCCO)cc3F)c3ccccc23)ncc1OC | Mitotic checkpoint serine/threonine-protein kinase BUB1 (Homo sapiens, UniProt O43683) | 8.37

----------
Biological target: Tyrosine-protein kinase SYK (Homo sapiens)
Test: Selectivity interaction (Kinase panel (radiometric inhibition assay)) EUB0000651a SYK
pIC50: −log10 of the molar value.
ENDPOINT_LABEL: pIC50

MOLECULE | ENDPOINT_LABEL | OBSERVED
COc1cc(C)c(Sc2cnc(NC(=O)c3ccc(CNC(C)C(C)(C)C)cc3)s2)cc1C(=O)N1CCN(C(C)=O)CC1 (stereo unspecified) | pIC50 | < 4.30

----------
Molecular target: Voltage-gated inwardly rectifying potassium channel KCNH3 (Homo sapiens)
Sequence (Q9ULD8 whole entry): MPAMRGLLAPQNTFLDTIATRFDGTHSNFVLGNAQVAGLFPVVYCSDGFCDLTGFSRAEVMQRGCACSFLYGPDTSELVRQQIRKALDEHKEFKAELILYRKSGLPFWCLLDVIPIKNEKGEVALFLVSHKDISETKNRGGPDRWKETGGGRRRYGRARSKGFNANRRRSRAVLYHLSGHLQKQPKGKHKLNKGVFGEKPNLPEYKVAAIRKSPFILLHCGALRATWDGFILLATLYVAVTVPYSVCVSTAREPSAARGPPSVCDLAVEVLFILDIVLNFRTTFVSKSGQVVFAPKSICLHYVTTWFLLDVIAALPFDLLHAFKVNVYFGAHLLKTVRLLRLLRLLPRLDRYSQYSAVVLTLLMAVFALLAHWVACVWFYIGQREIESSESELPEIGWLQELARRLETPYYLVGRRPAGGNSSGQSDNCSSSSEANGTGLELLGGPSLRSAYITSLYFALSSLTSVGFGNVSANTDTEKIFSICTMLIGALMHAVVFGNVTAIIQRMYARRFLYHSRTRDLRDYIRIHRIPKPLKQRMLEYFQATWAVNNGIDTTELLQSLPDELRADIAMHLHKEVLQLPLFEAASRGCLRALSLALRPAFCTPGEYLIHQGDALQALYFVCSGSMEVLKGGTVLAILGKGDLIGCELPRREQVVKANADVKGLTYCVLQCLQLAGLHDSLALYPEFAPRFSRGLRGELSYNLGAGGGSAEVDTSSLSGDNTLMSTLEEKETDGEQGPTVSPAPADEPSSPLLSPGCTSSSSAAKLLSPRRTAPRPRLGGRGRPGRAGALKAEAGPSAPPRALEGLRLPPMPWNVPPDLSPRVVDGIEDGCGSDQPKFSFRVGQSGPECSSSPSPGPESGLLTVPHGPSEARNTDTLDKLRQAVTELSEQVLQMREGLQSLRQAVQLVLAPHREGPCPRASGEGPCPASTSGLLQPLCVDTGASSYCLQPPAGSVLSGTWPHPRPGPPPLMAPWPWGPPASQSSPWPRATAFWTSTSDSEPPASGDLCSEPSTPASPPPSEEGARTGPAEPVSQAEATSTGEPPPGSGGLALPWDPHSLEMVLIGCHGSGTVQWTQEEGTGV
Test: Selectivity interaction (BET inhibitor selectivity panel (Human FP binding assay)) EUB0000102c KCNH3
ENDPOINT_LABEL: IC50 (µM)

MOLECULE_SMILES | OBSERVED
COc1cc2c(cc1-c1c(C)noc1C)ncc1[nH]c(=O)n([C@H](C)c3ccccn3)c12 | 40

----------
Biological target: Mitogen-activated protein kinase 8 (Homo sapiens)
Assay: Selectivity interaction (TR-FRET binding assay) EUB0000644a MAPK8
pIC50: −log10 of the molar value.

MOLECULE_SMILES | pIC50
CC[C@@H]1CN(C(=O)NCC(F)(F)F)C[C@@H]1c1cnc2cnc3[nH]ccc3n12 | < 5.00

----------
Molecular target: Tyrosine-protein kinase SYK (Homo sapiens, UniProt P43405)

MOLECULE_SMILES | IC50
CCc1cccc(CC)c1NC(=O)c1nn(C)c2c1CCc1cnc(Nc3ccc(C(=O)NC4CCN(C)CC4)cc3OC(F)(F)F)nc1-2 | > 10 µM

----------
Target: Cyclin-dependent kinase 5 (Homo sapiens, UniProt Q00535)
Sequence (Q00535 whole entry): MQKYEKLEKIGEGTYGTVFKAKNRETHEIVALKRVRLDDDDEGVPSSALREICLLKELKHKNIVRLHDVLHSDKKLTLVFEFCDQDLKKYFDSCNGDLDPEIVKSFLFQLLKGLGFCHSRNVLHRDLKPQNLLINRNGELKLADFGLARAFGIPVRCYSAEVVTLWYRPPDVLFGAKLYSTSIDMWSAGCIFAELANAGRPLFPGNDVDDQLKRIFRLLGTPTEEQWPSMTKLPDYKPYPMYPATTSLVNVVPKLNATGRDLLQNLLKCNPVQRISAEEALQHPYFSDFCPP
Experiment: Selectivity interaction (Kinase panel (enzymatic assay)) EUB0000595a CDK5

COMPOUND | TARGET_DESC | IC50
COCC(=O)NC/C=C/c1ccc2ncnc(Nc3ccc(Oc4ccc(C)nc4)c(C)c3)c2c1 [CP-724714] | Cyclin-dependent kinase 5 (Homo sapiens, UniProt Q00535) | > 10 µM

----------
Biological target: Serine/threonine-protein kinase Chk1 (Homo sapiens, UniProt O14757)
Sequence (O14757 whole entry): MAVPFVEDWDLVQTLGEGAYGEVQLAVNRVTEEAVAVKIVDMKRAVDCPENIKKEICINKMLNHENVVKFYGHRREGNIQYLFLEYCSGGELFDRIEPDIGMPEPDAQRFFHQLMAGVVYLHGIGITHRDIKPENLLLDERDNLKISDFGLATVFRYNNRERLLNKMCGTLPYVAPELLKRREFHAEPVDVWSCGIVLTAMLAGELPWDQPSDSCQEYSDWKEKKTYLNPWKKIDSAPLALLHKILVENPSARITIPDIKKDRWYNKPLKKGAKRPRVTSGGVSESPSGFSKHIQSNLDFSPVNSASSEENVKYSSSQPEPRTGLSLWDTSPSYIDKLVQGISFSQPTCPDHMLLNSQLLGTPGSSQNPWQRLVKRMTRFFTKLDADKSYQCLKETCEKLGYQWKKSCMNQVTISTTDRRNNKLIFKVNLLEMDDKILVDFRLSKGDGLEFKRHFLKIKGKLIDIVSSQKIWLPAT
pIC50: −log10 of the molar value.

MOLECULE_SMILES | pIC50
CCc1cccc(CC)c1NC(=O)c1nn(C)c2c1CCc1cnc(Nc3ccc(C(=O)NC4CCN(C)CC4)cc3OC(F)(F)F)nc1-2 | < 5.00

----------
Molecular target: Insulin-like growth factor 1 receptor (Homo sapiens, UniProt P08069)
Sequence (P08069 31-736 limits assumed): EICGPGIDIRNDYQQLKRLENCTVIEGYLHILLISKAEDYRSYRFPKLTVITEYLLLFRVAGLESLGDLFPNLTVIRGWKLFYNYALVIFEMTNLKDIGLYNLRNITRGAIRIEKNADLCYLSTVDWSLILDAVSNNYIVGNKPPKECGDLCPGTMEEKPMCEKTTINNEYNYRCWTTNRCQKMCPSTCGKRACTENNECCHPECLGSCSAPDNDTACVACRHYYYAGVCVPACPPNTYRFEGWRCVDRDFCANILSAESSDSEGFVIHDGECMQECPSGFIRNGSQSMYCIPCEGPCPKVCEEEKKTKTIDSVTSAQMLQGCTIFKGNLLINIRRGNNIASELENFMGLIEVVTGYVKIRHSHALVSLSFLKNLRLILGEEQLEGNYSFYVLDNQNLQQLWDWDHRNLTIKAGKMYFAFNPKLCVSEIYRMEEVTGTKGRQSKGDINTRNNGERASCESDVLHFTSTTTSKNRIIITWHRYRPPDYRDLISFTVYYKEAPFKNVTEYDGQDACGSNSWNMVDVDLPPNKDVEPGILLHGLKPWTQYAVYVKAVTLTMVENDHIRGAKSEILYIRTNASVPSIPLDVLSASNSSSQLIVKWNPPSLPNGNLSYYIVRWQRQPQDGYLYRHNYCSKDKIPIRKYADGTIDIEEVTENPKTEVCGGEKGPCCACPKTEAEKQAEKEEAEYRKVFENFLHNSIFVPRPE
Sequence (P08069 741-1367 limits assumed): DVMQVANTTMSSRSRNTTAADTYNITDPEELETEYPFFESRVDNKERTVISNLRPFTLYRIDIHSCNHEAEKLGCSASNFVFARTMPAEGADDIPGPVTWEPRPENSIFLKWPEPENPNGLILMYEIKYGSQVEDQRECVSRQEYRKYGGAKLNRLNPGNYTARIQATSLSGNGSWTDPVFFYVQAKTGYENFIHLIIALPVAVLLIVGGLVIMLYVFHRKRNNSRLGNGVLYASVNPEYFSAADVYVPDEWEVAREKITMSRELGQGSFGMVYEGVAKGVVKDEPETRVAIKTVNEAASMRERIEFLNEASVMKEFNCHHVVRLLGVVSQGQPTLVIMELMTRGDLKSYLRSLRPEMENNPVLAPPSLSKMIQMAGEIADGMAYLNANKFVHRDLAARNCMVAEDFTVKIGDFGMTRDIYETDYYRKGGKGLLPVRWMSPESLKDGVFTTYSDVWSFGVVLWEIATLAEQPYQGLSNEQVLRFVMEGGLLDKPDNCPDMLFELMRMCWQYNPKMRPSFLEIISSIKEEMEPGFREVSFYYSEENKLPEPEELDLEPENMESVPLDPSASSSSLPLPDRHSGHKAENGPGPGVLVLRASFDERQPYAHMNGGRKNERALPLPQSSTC
Experiment: Selectivity interaction (Kinase panel (enzymatic assay)) EUB0000595a IGF1R

MOLECULE_SMILES | TARGET_DESC | IC50
COCC(=O)NC/C=C/c1ccc2ncnc(Nc3ccc(Oc4ccc(C)nc4)c(C)c3)c2c1 | Insulin-like growth factor 1 receptor (Homo sapiens, UniProt P08069) | > 10 µM

----------
Assay: Selectivity interaction (Kinase panel (cellular selectivity, Bright-Glo proliferation assay in BaF3 Cell line, Promega)) EUB0000678a BMX
pIC50: −log10 of the molar value.

COMPOUND | pIC50
CCN1CCN(c2ccc(Nc3cc(N(C)C(=O)Nc4c(Cl)c(OC)cc(OC)c4Cl)ncn3)cc2)CC1 [INFIGRATINIB] | 5.47

----------
Target: CDK1/Cyclin A (Homo sapiens, UniProt P06493+P20248+P78396)
Assay: Selectivity interaction (Enzymatic assay (Reaction Biology)) EUB0001632a CDK1
Assay type: protein-complex assay
pIC50: −log10 of the molar value.

MOLECULE_SMILES | pIC50
Cn1cc(-n2cnc3c(NCc4nc5cc(Cl)c(Cl)cc5[nH]4)nc(N4CCOCC4)nc32)cn1 | < 5.00
